Numbers sourced from patent US20250353873A1.

Below, each entry is listed alongside its reported APOE RNA (% control) Spinal Cord.
Test system: human APOE RNA
Assay: Activity in APOE 1549 knock-in mice, single ICV bolus, 2 weeks (Example 7)
Assay type: in vivo
Conditions: single ICV bolus of 300 μg, two weeks post treatment, spinal cord, Table 16
Protocol: Modified oligonucleotides described above were tested in APOE knock-in mice. APOE knock-in mice (model 41549) were obtained from Taconic Biosciences. APOE knock-in mice were divided into groups of 2 mice each. […] Two weeks post treatment, mice were sacrificed and RNA was extracted from cortical brain tissue and spinal cord for quantitative real-time RT-PCR analysis of RNA expression of APOE using primer probe set RTS3073 (described herein above). […]
Strand notation (5' to 3'): a small letter for the sugar, then the base; units joined by * are phosphorothioate-linked, units joined directly phosphodiester-linked; [ ] holds rarer units or linkages, { } end groups; capitals alone tell only the bases. e = 2'-O-(2-methoxyethyl) (MOE); [5mC] = 5-methylcytosine; d = 2'-deoxy (DNA)
OBSERVABLE: APOE RNA (% control) Spinal Cord

>  <SUBSTANCE>
Compound No. 1517853: comparator of WO 2022/066956; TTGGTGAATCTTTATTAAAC, sugar eeeeeddddddddddeeeee, linkages sooosssssssssssooss (MOE gapmer, mixed PS/PO linkages, chemistry not fully specified) [reference compound]

>  <READOUT_VALUE>
65 % control

$$$$
>  <SUBSTANCE>
1601943: 6-10-4 MOE gapmer GTCCTCATTTTAAAGTTCTC, linkages sooooossssssssssoss (antisense eG*eTe[5mC]e[5mC]eTe[5mC]dA*dT*dT*dT*dT*dA*dA*dA*dG*dT*eTe[5mC]*eT*e[5mC]) [compound 1601943]

>  <READOUT_VALUE>
113 % control

$$$$
>  <SUBSTANCE>
1601942: 6-10-4 MOE gapmer CCGTGTTCCATTTATGAGCT, linkages sooooossssssssssoss (antisense e[5mC]*e[5mC]eGeTeGeTdT*d[5mC]*d[5mC]*dA*dT*dT*dT*dA*dT*dG*eAeG*e[5mC]*eT) [compound 1601942]

>  <READOUT_VALUE>
91 % control

$$$$
>  <SUBSTANCE>
Compound No. 1517891: comparator of WO 2022/066956; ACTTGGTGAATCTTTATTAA, sugar eeeeeddddddddddeeeee, linkages sooosssssssssssooss (MOE gapmer, mixed PS/PO linkages, chemistry not fully specified) [reference compound]

>  <READOUT_VALUE>
65 % control

$$$$
>  <SUBSTANCE>
1601944: 6-10-4 MOE gapmer CTGGTCTTCTCTTATCTCCC, linkages sooooossssssssssoss (antisense e[5mC]*eTeGeGeTe[5mC]dT*dT*d[5mC]*dT*d[5mC]*dT*dT*dA*dT*d[5mC]*eTe[5mC]*e[5mC]*e[5mC]) [compound 1601944]

>  <READOUT_VALUE>
95 % control

$$$$
>  <SUBSTANCE>
1601949: 6-10-4 MOE gapmer CTGCAATGCATTAGAAACCT, linkages sooooossssssssssoss (antisense e[5mC]*eTeGe[5mC]eAeAdT*dG*d[5mC]*dA*dT*dT*dA*dG*dA*dA*eAe[5mC]*e[5mC]*eT) [compound 1601949]

>  <READOUT_VALUE>
92 % control

$$$$

====

tested on: human APOE RNA; assay: Duration of action study in APOE C57BL/6NTac-Apoeem7250 knock-in mice (Example 18); type: in vivo; conditions: cortex; 224 days post-dose; single ICV bolus 300 μg; APOE knock-in mice; normalized to mouse Ppia; relative to PBS
Marks after values point to notes of the source that are not given here. Strand notation (5' to 3'): a small letter for the sugar, then the base; units joined by * are phosphorothioate-linked, units joined directly phosphodiester-linked; [ ] holds rarer units or linkages, { } end groups; capitals alone tell only the bases. [ms] = mesyl phosphoramidate linkage; e = 2'-O-(2-methoxyethyl) (MOE); k = constrained ethyl (cEt); [5mC] = 5-methylcytosine; d = 2'-deoxy (DNA)

>  <SUBSTANCE>
Aes^mCeoTeoTesGesGksTdsGdzAdzAdzTds^mCdsTdsTdsTdsAdzTksTksAesAe (eA*e[5mC]eTeT*eG*kG*dT*dG[ms]dA[ms]dA[ms]dT*d[5mC]*dT*dT*dT*dA[ms]kT*kT*eA*eA) [Compound No. 1757576]

>  <APOE RNA (% control) Cortex>
92‡ % control

$$$$
>  <SUBSTANCE>
Aks^mCeoTeoTesGesGksTdsGdzAdzAdzTds^mCdsTdsTdsTdsAdzTksTksAesAe (kA*e[5mC]eTeT*eG*kG*dT*dG[ms]dA[ms]dA[ms]dT*d[5mC]*dT*dT*dT*dA[ms]kT*kT*eA*eA) [Compound No. 1809635]

>  <APOE RNA (% control) Cortex>
55 % control

$$$$
>  <SUBSTANCE>
^mCksTksTksGdzGdzTdzGdzAdzAdzTds^mCdsTdsTdsTdsAdsTdsTksAksAdzAk (antisense k[5mC]*kT*kT*dG[ms]dG[ms]dT[ms]dG[ms]dA[ms]dA[ms]dT*d[5mC]*dT*dT*dT*dA*dT*kT*kA*dA[ms]kA) [Compound No. 1785602]

>  <APOE RNA (% control) Cortex>
79 % control

$$$$
>  <SUBSTANCE>
TezTeoGeoGksTdsGdzAdzAdzTds^mCdsTdsTdsTdsAdzTksTksAesAesAes^mCe (antisense eT[ms]eTeGkG*dT*dG[ms]dA[ms]dA[ms]dT*d[5mC]*dT*dT*dT*dA[ms]kT*kT*eA*eA*eA*e[5mC]) [Compound No. 1809814]

>  <APOE RNA (% control) Cortex>
90 % control

$$$$
